Test system: 926638-142-R-J1-PDC complex spheroid viability;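 also: spheroids exposed to drugs for one week before readout; percent viability relative to DMSO vehicle control wells set as 100%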
Assay: Anticancer human tumor 926638-142-R-J1-PDC patient-derived endometrial carcinoma cell line growth inhibition [POLQ]
Settings: second compound 0.1 µM; first compound 0.0316 µM; active compounds read low
Quick list: viability, T/C per entry.
Property: viability, T/C (%)

1) COc1cc(C2c3cc4c(cc3C(OC3OC5COC(C)OC5C(O)C3O)C3COC(=O)C23)OCO4)cc(OC)c1O (configuration not stated) + COC1C(OC(N)=O)C(O)C(Oc2ccc3c(O)c(NC(=O)c4ccc(O)c(CC=C(C)C)c4)c(=O)oc3c2C)OC1(C)C    95
2) O=C(c1cc(Cc2n[nH]c(=O)c3ccccc23)ccc1F)N1CCN(C(=O)C2CC2)CC1 + Cc1cccc(N(C)C(=O)C2C(O)CCN2c2nc(C)cc(C(F)(F)F)c2C#N)c1    114
3) O=C(Nc1ccc(O)c(NS(=O)(=O)c2ccc(F)cc2)c1)c1ccc(-c2ccccc2)cc1 + COC1C(OC(N)=O)C(O)C(Oc2ccc3c(O)c(NC(=O)c4ccc(O)c(CC=C(C)C)c4)c(=O)oc3c2C)OC1(C)C    91
4) CC1COCCN1c1cc(C2(S(C)(=N)=O)CC2)nc(-c2ccnc3[nH]ccc23)n1 (configuration not stated) + Cc1cccc(N(C)C(=O)C2C(O)CCN2c2nc(C)cc(C(F)(F)F)c2C#N)c1    104
5) C=CC(=O)N1CCN(c2nc(=O)n(-c3c(C)ccnc3C(C)C)c3nc(-c4c(O)cccc4F)c(F)cc23)C(C)C1 (configuration not stated) + Cc1cccc(N(C)C(=O)C2C(O)CCN2c2nc(C)cc(C(F)(F)F)c2C#N)c1    82.8
6) CC1COCCN1c1cc(-c2ccnn2C)c2ccnc(-c3ccn[nH]3)c2n1 (configuration not stated) + Cc1cccc(N(C)C(=O)C2C(O)CCN2c2nc(C)cc(C(F)(F)F)c2C#N)c1    106
7) C=CCn1c(=O)c2cnc(Nc3ccc(N4CCN(C)CC4)cc3)nc2n1-c1cccc(C(C)(C)O)n1 + Nc1ccc(C#CCN(C(=O)Cc2ncc(C(F)(F)F)cc2C(F)(F)F)c2ccc(F)cc2)nn1    92.3
8) COc1cc(C2c3cc4c(cc3C(OC3OC5COC(C)OC5C(O)C3O)C3COC(=O)C23)OCO4)cc(OC)c1O (configuration not stated) + Cc1cccc(N(C)C(=O)C2C(O)CCN2c2nc(C)cc(C(F)(F)F)c2C#N)c1    76.8
9) CCc1c2c(nc3ccc(O)cc13)-c1cc3c(c(=O)n1C2)COC(=O)[C@]3(O)CC + Nc1ccc(C#CCN(C(=O)Cc2ncc(C(F)(F)F)cc2C(F)(F)F)c2ccc(F)cc2)nn1    36.5
10) CCc1cc2c(N3CCc4c(cc(Cn5ccnc5)cc4-c4cn(C)nc4C(F)(F)F)C3=O)cc(C)nc2c(OC)n1 + COC1C(OC(N)=O)C(O)C(Oc2ccc3c(O)c(NC(=O)c4ccc(O)c(CC=C(C)C)c4)c(=O)oc3c2C)OC1(C)C    72.5
11) CCc1c2c(nc3ccc(O)cc13)-c1cc3c(c(=O)n1C2)COC(=O)[C@]3(O)CC + COC1C(OC(N)=O)C(O)C(Oc2ccc3c(O)c(NC(=O)c4ccc(O)c(CC=C(C)C)c4)c(=O)oc3c2C)OC1(C)C    35.9
12) CC[C@@]1(O)C(=O)OCc2c1cc1n(c2=O)Cc2cc3c(CN(C)C)c(O)ccc3nc2-1 + Cc1cccc(N(C)C(=O)C2C(O)CCN2c2nc(C)cc(C(F)(F)F)c2C#N)c1    64.7
13) COc1cccc(OCCCN)c1-c1cc(Nc2cnc(C#N)cn2)n[nH]1 + Cc1cccc(N(C)C(=O)C2C(O)CCN2c2nc(C)cc(C(F)(F)F)c2C#N)c1    54.2
14) COc1cc2cc(C(=O)CCC(=O)O)sc2cc1OC + Cc1cccc(N(C)C(=O)C2C(O)CCN2c2nc(C)cc(C(F)(F)F)c2C#N)c1    104
15) CC(C)n1c(=O)n(C)c2cnc3cc(F)c(-c4ccc(OCCCN5CCCCC5)nc4)cc3c21 + Nc1ccc(C#CCN(C(=O)Cc2ncc(C(F)(F)F)cc2C(F)(F)F)c2ccc(F)cc2)nn1    120
16) COc1cc(C2c3cc4c(cc3C(OC3OC5COC(C)OC5C(O)C3O)C3COC(=O)C23)OCO4)cc(OC)c1O (configuration not stated) + Nc1ccc(C#CCN(C(=O)Cc2ncc(C(F)(F)F)cc2C(F)(F)F)c2ccc(F)cc2)nn1    96.6
17) CCc1cc2c(N3CCc4c(cc(Cn5ccnc5)cc4-c4cn(C)nc4C(F)(F)F)C3=O)ccnc2c(OC)n1 + COC1C(OC(N)=O)C(O)C(Oc2ccc3c(O)c(NC(=O)c4ccc(O)c(CC=C(C)C)c4)c(=O)oc3c2C)OC1(C)C    81.9

Reference source: PubChem BioAssay AID1963826
